For each of the compounds below, state its melting point.

Entry Cc1c(-c2ccc(O)cc2)sc(C=NO)c1-c1ccc(O)cc1 : reported melting point = ?
233 to 234 °C

Find the recorded melting point belonging to CCCCCCCCCCCCc1cc(CBr)on1 and report it.
31.5 to 35 °C

Suppose we examine the compound CC(=O)OC[C@H]1OC(O)(Cl)[C@H](NC(=O)c2cccnc2)[C@@H](OC(C)=O)[C@@H]1OC(C)=O (stereo partly specified) ; what melting point value has been reported?
175 to 176 °C

Tell me the measured melting point of CC(=O)OCC1OC(n2c(Cl)nc3ccc(Br)cc32)C(OC(C)=O)C1OC(C)=O (stereo unspecified) , please.
121 to 122 °C

I am curious: what melting point value has been reported for CC(c1c[nH]cn1)c1cccc(CO)c1O (stereo unspecified) ?
135 to 136 °C

State the recorded melting point for this entry: C[Si](C)(C)C#CC1(O)CCCCC1
72 to 73 °C

Give the measured melting point of Cc1ccc(S(=O)(=O)NC(C)(C)CO)cc1NC(=O)c1cnn2c(C(F)(F)F)cc(-c3ccc(C(F)(F)F)cc3)nc12 .
240 °C

Any idea what its melting point is? The compound is CCOC(=O)c1nc2cc(N)ccn2n1
150 to 171 °C

Record request: melting point value, item CCCCCCCCCCCCCCCCCCOc1ccc(NC(=O)c2ccc(O)cc2)cc1
170 °C

Consider the compound CC(=O)OC(c1nc2c(C(F)(F)F)cccc2c(O)c1C(=O)Nc1nccs1)C(C)C (stereo unspecified) and give its measured melting point.
242 °C

Name the recorded melting point for CCCCCCCCCCCCCCCCCCN(CCCCCCCCCCCCCCCCCC)CCCNC=O .
42 to 46 °C

Which melting point value belongs to CN(c1ccc(Cl)cc1)c1nc(=O)c2ccncc2s1 ?
255 to 256 °C

Need melting point of CC(C)OC1COc2ccc(OCc3ccc4ccccc4n3)cc2C1=O (stereo unspecified) , thanks.
85 °C

Would you kindly share the measured melting point for O=C(Oc1ccc(F)cc1)N1CCN2C(=O)OC(c3ccccc3)(c3ccccc3)C2C1 (stereo unspecified) ?
188 to 189 °C

What does the data say about its melting point? Entry: CC(=O)Cn1c(CO)nc(C(C)C)c1Sc1cc(Cl)cc(Cl)c1
165 to 167 °C

I'd like to know its melting point. The compound in question is CCN(CC)CCNC(=O)c1cc(Cl)c(N)cc1OC1CCCCC1=O (stereo unspecified)
96 to 99 °C

melting point lookup needed for O=C(NCc1ccc(Cl)cc1)c1cnc2c(F)cc(I)cc2c1O , thanks.
268 to 270 °C

I have this compound here, CCOC(=O)N1CCN(C2=Nc3ccccc3Cc3ccccc32)CC1 , and I need its recorded melting point.
137 to 138 °C

Using the record for O=C(O)Cn1c(=O)c2cc(Cl)ccc2n(Cc2ccc(F)cc2)c1=O , report its melting point.
211 to 212 °C

Which melting point is listed for CC1(COc2ccc(S(=O)(=O)C3SC(=O)NC3=O)cc2)CCCCC1 (stereo unspecified) ?
174 to 175 °C

I'd like to know its melting point. The compound in question is CCc1nc(/C=C/c2cccc(Cl)c2Cl)no1
107 to 109 °C

State the recorded melting point for this entry: Cc1nc2cc(C#N)cc(C#N)c2[nH]1
290 to 292 °C

Can you share its melting point? I mean this compound: Cc1ccccc1-c1cc(N2CCS(=O)(=O)CC2)ncc1N(C)C(=O)C(C)(C)c1cc(C(F)(F)F)cc(C(F)(F)F)c1
200 to 201 °C

Quick check: melting point of CC(C)(C)c1cc(SCc2ccc(C#N)cc2)cc(C(C)(C)C)c1O ?
143 to 145 °C

For the compound shown here, O=C(Oc1ccccc1)N1c2ncccc2OCC1OP(=O)(Oc1ccccc1)Oc1ccccc1 (stereo unspecified) , give the reported melting point.
82 °C

Item Cc1sc(C=O)cc1C(=O)O has what recorded melting point?
173 °C

I'd like to know its melting point. The compound in question is Cc1c(F)c(F)cc(F)c1C(=O)O
104 to 105 °C

Param item = Clc1nccc(Nc2cnc3ccccc3c2)n1 ; retrieve measured melting point.
140 to 143 °C

Which value of melting point has been reported for CCOP1(=S)OCc2cc(C)cnc2O1 (stereo unspecified) in the records?
54 to 55 °C

Would you mind telling me what melting point value was observed for Nc1cccc(-c2ccc(CCN3CCc4ccccc4C3)cc2)n1 ?
130 to 132 °C

Value lookup for melting point; key = CC(C)C(=O)N1CCC(NC(=O)c2ccccc2Oc2ccc(Cl)cc2Cl)CC1
51 to 54 °C

Could you share which melting point value was measured for Cc1cc(Oc2ccc(C(F)(F)F)cc2[N+](=O)[O-])n[nH]1 ?
89 to 91 °C

Requested read-out: melting point. Entry: Cc1nc(N)c2nc(O)n(Cc3cc(-c4ccc(F)cc4)no3)c2c1C
250 °C

Report melting point for O=CC(=Cc1ccccc1OCc1ccc(Cl)cc1)C(C=O)=Cc1ccccc1OCc1ccc(Cl)cc1 please.
186 to 187 °C

Given the entry O=C1C(=O)N(Cc2ccccc2F)c2ccc(S(=O)(=O)N3CC[C@H]3COc3ccccc3)cc21 , report its measured melting point.
147 to 148 °C

So what does the record say about melting point for CC(C)CC(=O)N[C@H]1N=C(c2ccccc2)c2ccccc2N(C)C1=O ?
83 to 102 °C

I would be grateful if you could share the reported melting point for c1ccc(C2SCCCS2)cc1 .
72 to 73 °C

Consider the compound shown here: CC(=O)Oc1cccc(CCNC(=O)/C=C/c2cccnc2)c1 What is its recorded melting point?
99 °C

Give its melting point value. Item: Cn1c(Nc2cc(C(F)(F)F)ccc2Cl)nc(C(F)(F)F)cc1=O
158 to 159 °C

melting point for COc1ccc2cc(C(=O)C(C)OS(C)(=O)=O)ccc2c1 (stereo unspecified) ?
149 to 151 °C

Requested read-out: melting point. Entry: COc1cc2c(cc1-c1cccnc1)-c1c(Cl)c3c(n1CC2)C(=O)N(C(C)(C)C)CCCC3
190 to 192 °C
